Each recorded value in this set is attributed to the RNAGym collection of RNA variant scans (doi:10.1002/anie.201605470).

B1: Osa-1-4 twister ribozyme (parent)
chain: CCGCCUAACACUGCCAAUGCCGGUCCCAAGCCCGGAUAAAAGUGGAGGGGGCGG

variants of: B1; test: self-cleavage, relative activity (ratio to wild type); higher = more cleavage; co-transcriptional
Item-by-item account of self-cleavage
parameterMeasured: self-cleavage

A29U G23A | 0.08
A36U A39G | 0.98
A28C G51U | 0.28
C25U U18A | 0.75
G19A G53U | 0.13
A41G G30A | 0.05
C9U G54C | 0.71
A8G C52G | 0.58
A39G G53C | 0.08
G30A G42A | 0.04
A29U G42C | 0.04
A28C G44A | 0.95
C9U U43G | 0.4
